For each record, write down the corresponding pIC50.
target: IGF-1R Ba/F3 (Homo sapiens); construct: fused on or other part: TEL- (or BCR-) IGF-1R in Ba/F3: the kinase part holds the site; experiment: Ba/F3 Cell Viability Inhibition Assay (IGF-1R Ba/F3); details: Tel-TK transformed Ba/F3 cells, 48 hours, Britelite luminescence
Value format note: pIC50 is -log10 of concentration (mol/L); just state the number.

Form field: reported pIC50 of Cc1cc(Nc2nc(Nc3cc(Cl)c(C4CCN(C5CCS(=O)(=O)C5)CC4)cc3C)ncc2Cl)n[nH]1 (stereo not shown) [Compound 144] 8.15

Form field: reported pIC50 of CC[N+]1([O-])CCC(c2cc(F)c(Nc3ncc(Cl)c(Nc4cc(C)[nH]n4)n3)cc2C)CC1 (stereo not shown) [Compound 289] 6.43

Form field: reported pIC50 of Cc1cc(Nc2nc(Nc3cc(C(F)(F)F)c(N4CCN(C)CC4)cc3C)ncc2Cl)n[nH]1 [Compound 156] 7.40

Form field: reported pIC50 of Cc1cc(Nc2nc(Nc3cc(C)c(C4CCN(C(=O)[C@@H]5CC(O)CN5C)CC4)cc3F)ncc2Cl)n[nH]1 (stereo partly shown) [Compound 128] 6.76

Form field: reported pIC50 of Cc1cc(Nc2nc(Nc3cc(C)c(C4CCN(C(=O)c5ccc[nH]5)CC4)cc3F)ncc2Cl)n[nH]1 [Compound 124] 6.84

Form field: reported pIC50 of Cc1cc(Nc2ncc(Cl)c(Nc3cc(C4CC4)[nH]n3)n2)c(F)cc1C1CCN(C2CC2)CC1 [Compound 255] 6.64

Form field: reported pIC50 of Cc1cc(Nc2nc(Nc3cc(C)c(C4CCN(CCC(=O)NC5CC5)CC4)cc3F)ncc2Cl)n[nH]1 [Compound 247] 7.21

* * *

For each record, write down the corresponding pIC50.
target: IGF-1R Ba/F3 (Homo sapiens); construct: fused on or other part: TEL- (or BCR-) IGF-1R in Ba/F3: the kinase part holds the site; test: Ba/F3 Cell Viability Inhibition Assay (IGF-1R Ba/F3); conditions: Tel-TK transformed Ba/F3 cells, 48 hours, Britelite luminescence
Value format note: pIC50 is -log10 of concentration (mol/L); just state the number.

Form field: reported pIC50 of Cc1cc(C2CCNCC2)c(C)cc1Nc1ncc(Cl)c(Nc2cc(C3CC3)[nH]n2)n1 7.02

Form field: reported pIC50 of Cc1cc(Nc2nc(Nc3cc(C)c(C4CCN(C)CC4)cc3C)ncc2Cl)n[nH]1 7.82

Form field: reported pIC50 of Cc1cc(Nc2nc(Nc3cc(C)c(C4CCN(C[C@H](O)C(F)(F)F)CC4)cc3C)ncc2C)n[nH]1 6.92

Form field: reported pIC50 of CCc1cc(Nc2nc(Nc3cc(C)c(C4CCN(CC(N)=O)CC4)cc3F)ncc2Cl)n[nH]1 7.48

Form field: reported pIC50 of Cc1cc(Nc2nc(Nc3cc(C)c(C4CCN(CCCS(=O)(=O)N5CCC5)CC4)cc3C)ncc2Cl)n[nH]1 7.40

Form field: reported pIC50 of Cc1cc(Nc2nc(Nc3cc(Cl)c(C4CCN(C(=O)CN(C)C)CC4)cc3C)ncc2Cl)n[nH]1 8.15

Form field: reported pIC50 of Cc1cc(Nc2nc(Nc3cc(C)c(C4CCCNC4)cc3C)ncc2Cl)n[nH]1 (centres unmarked) 7.30

Form field: reported pIC50 of Cc1cc(Nc2nc(Nc3cc(C)c(C4CCNC(C)C4)cc3F)ncc2Cl)n[nH]1 (centres unmarked) 7.74

* * *

For each record, write down the corresponding IC50.
molecular target: IGF-1R Ba/F3 (Homo sapiens, UniProt P08069); construct: fused on or other part: TEL- (or BCR-) IGF-1R in Ba/F3: the kinase part holds the site; test: Ba/F3 Cell Viability Inhibition Assay (IGF-1R Ba/F3); conditions: Tel-TK transformed Ba/F3 cells, 48 hours, Britelite luminescence
Sequence (P08069 999-1274 limits assumed): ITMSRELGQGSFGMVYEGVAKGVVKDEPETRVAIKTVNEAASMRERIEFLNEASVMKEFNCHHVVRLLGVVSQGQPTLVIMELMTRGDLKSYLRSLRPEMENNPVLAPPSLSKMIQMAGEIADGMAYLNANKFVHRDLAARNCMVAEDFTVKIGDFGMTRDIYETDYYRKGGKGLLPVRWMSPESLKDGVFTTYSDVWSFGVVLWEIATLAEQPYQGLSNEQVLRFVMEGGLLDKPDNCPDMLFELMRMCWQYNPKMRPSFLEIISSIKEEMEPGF
Response body: numeric value in nM, unit text excluded.

Form field: reported IC50 of CCN1CCC(c2cc(C)c(Nc3ncc(C(F)(F)F)c(Nc4cc(C)[nH]n4)n3)cc2C)CC1 34

Form field: reported IC50 of Cc1cc(Nc2nc(Nc3cc(C)c(C4CCN(C(=O)[C@]5(C)CCCN5)CC4)cc3F)ncc2Cl)n[nH]1 91

Form field: reported IC50 of Cc1cc(Nc2nc(Nc3cc(C)c(C4CCCCN4C[C@H](O)C(F)(F)F)cc3C)ncc2Cl)n[nH]1 (stereo partly drawn) 210

Form field: reported IC50 of Cc1cc(Nc2nc(Nc3cc(C)c(C4CCOC(=O)C4)cc3C)ncc2Cl)n[nH]1 (stereo not drawn) 155

Form field: reported IC50 of Cc1cc(Nc2nc(Nc3cc(C)c(C4CCN(C5CCC(=O)CC5)CC4)cc3F)ncc2Cl)n[nH]1 23

Form field: reported IC50 of COc1cc(Nc2ncc(Cl)c(Nc3cc(C)[nH]n3)n2)c(C)cc1C1CCN(C[C@@H](O)C(F)(F)F)CC1 23

Form field: reported IC50 of Cc1cc(Nc2nc(Nc3cc(C)c(C4CCCCN4C(=O)CN(C)C)cc3C)ncc2Cl)n[nH]1 (stereo not drawn) 13

Form field: reported IC50 of Cc1cc(Nc2nc(Nc3cc(C)c(C4CCN(C(=O)N5CCOCC5)CC4)cc3F)ncc2Cl)n[nH]1 8

Form field: reported IC50 of Cc1cc(Nc2nc(Nc3cc(C)c(C4CCN([C@H]5CC[C@H](O)CC5)CC4)cc3F)ncc2Cl)n[nH]1 27

Form field: reported IC50 of Cc1cc(Nc2nc(Nc3cc(C)c(C4CCN(Cc5noc(C(C)(C)C)n5)CC4)cc3C)ncc2Cl)n[nH]1 25

Form field: reported IC50 of CCc1cc(Nc2nc(Nc3cc(C)c(C4CCN(CC)CC4)cc3F)ncc2Cl)n[nH]1 22

Form field: reported IC50 of Cc1cc(Nc2nc(Nc3cc(C(F)(F)F)c(N4CCOCC4)cc3F)ncc2Cl)n[nH]1 91

Form field: reported IC50 of CCc1noc(CN2CCC(c3cc(F)c(Nc4ncc(Cl)c(Nc5cc(C)[nH]n5)n4)cc3C)CC2)n1 33

Form field: reported IC50 of CCNC1(C(=O)N2CCC(c3cc(F)c(Nc4ncc(Cl)c(Nc5cc(C)[nH]n5)n4)cc3C)CC2)CC1 4

Form field: reported IC50 of Cc1cc(C2CCNCC2)c(C)cc1Nc1ncc(Cl)c(Nc2ccc[nH]c2=O)n1 62

* * *

biological target: IGF-1R Ba/F3 (Homo sapiens, UniProt P08069); construct: fused on or other part: TEL- (or BCR-) IGF-1R in Ba/F3: the kinase part holds the site; assay: Ba/F3 Cell Viability Inhibition Assay (IGF-1R Ba/F3); conditions: Tel-TK transformed Ba/F3 cells, 48 hours, Britelite luminescence
Rule: IC50 below 20 nM gives true, anything at or above gives false.

Is 20 nM strictly greater than the compound's reported IC50? compound: Cc1cc(Nc2nc(Nc3cc(C)c(C4CCN(C(=O)N5CCN(C)CC5)CC4)cc3F)ncc2Cl)n[nH]1 false

Is 20 nM strictly greater than the compound's reported IC50? compound: Cc1cc(Nc2nc(Nc3cc(C)c(C4CCN(C5CS(=O)(=O)C5)CC4)cc3F)ncc2Cl)n[nH]1 true

Is 20 nM strictly greater than the compound's reported IC50? compound: Cc1cc(Nc2nc(Nc3cc(C)c(C4CCN(C(C)C(N)=O)CC4)cc3F)ncc2Cl)n[nH]1 (stereo not shown) true

Is 20 nM strictly greater than the compound's reported IC50? compound: Cc1cc(Nc2nc(Nc3cc(C)c(C4CCN(C5CN(S(C)(=O)=O)C5)CC4)cc3F)ncc2Cl)n[nH]1 false

Is 20 nM strictly greater than the compound's reported IC50? compound: Cc1cc(Nc2nc(Nc3cc(C)c(C4CCN(S(=O)(=O)CCCN5CCC5)CC4)cc3C)ncc2Cl)n[nH]1 false

Is 20 nM strictly greater than the compound's reported IC50? compound: COc1cc(Nc2ncc(Cl)c(Nc3cc(C)[nH]n3)n2)c(C)cc1C1CCN(C)CC1 true

* * *

For each record, write down the corresponding IC50.
target: IGF-1R Ba/F3 (Homo sapiens); construct: fused on or other part: TEL- (or BCR-) IGF-1R in Ba/F3: the kinase part holds the site; assay: Ba/F3 Cell Viability Inhibition Assay (IGF-1R Ba/F3); settings: Tel-TK transformed Ba/F3 cells, 48 hours, Britelite luminescence
Response body: numeric value in nM, unit text excluded.

Please provide the recorded IC50 for Cc1cc(Nc2nc(Nc3cc(C)c(C4CCN(C(=O)CN(C)C)CC4)cc3C)ncc2Cl)n[nH]1 , tested on IGF-1R Ba/F3 (Homo sapiens). 11

Please provide the recorded IC50 for Cc1cc(Nc2nc(Nc3cc(C)c(C4CCS(=O)(=O)C4)cc3C)ncc2Cl)n[nH]1 (stereo not shown) , tested on IGF-1R Ba/F3 (Homo sapiens). 12

Please provide the recorded IC50 for Cc1cc(Nc2nc(Nc3cc(Cl)c(C4CCN(CCC(F)(F)F)CC4)cc3C)ncc2Cl)n[nH]1 , tested on IGF-1R Ba/F3 (Homo sapiens). 44

Please provide the recorded IC50 for Cc1cc(Nc2nc(Nc3cc(C)c(C4CCN(C(=O)[C@@H]5COCCN5C(C)C)CC4)cc3F)ncc2Cl)n[nH]1 , tested on IGF-1R Ba/F3 (Homo sapiens). 29
